For each of the compounds below, state its Ki.
Target: rat brain benzodiazepine receptors (3H-diazepam receptor)
Assay: benzodiazepine-receptor binding test in vitro (inhibition of specific 3H-diazepam binding to rat brain membranes)
Settings: 3H-diazepam displacement, read-out: inhibition constant Ki (Ki = IC50/(1+C/KD)) for specific 3H-diazepam binding
Source text: The pharmacological properties of the compounds of the present invention were first investigated by submitting some representative members of this class to the benzodiazepine-receptor binding-test in vitro.
Hi! Could you send only the number? It should be in nM, unit omitted.

Ask: Name the recorded Ki for COCCOCc1nn2c(-c3ccc(OC)cc3)nnc2c2ccccc12 [Example 1] .
Reply: 20

Ask: So what's the measured Ki for this one? COc1ccc(-c2nnc3c4ccccc4c(CN4CCCC4)nn23)cc1 [Example 2]
Reply: 150
